Ref: BigSolDB 2.1

# assayContext: in ethyl acetate, 316.65 K
measuredProperty: solubility (mole fraction)
Give the figure only, with no unit attached.

IN: Item under review: C[C@@H]1CC[C@@]2(OC1)O[C@H]1C[C@H]3[C@@H]4CC=C5C[C@@H](O)CC[C@]5(C)[C@H]4CC[C@]3(C)[C@H]1[C@@H]2C . Reported solubility (mole fraction)?
OUT: 0.00466

====

# assayContext: in ethyl acetate, 311.65 K
measuredProperty: solubility (mole fraction)
Give the figure only, with no unit attached.

IN: Item under review: C[C@@H]1CC[C@@]2(OC1)O[C@H]1C[C@H]3[C@@H]4CC=C5C[C@@H](O)CC[C@]5(C)[C@H]4CC[C@]3(C)[C@H]1[C@@H]2C . Reported solubility (mole fraction)?
OUT: 0.00402
